# Tested on: UISO
# test: qHTS assay to identify novel small-molecules to repurpose for Merkel cell carcinoma treatment (AID 1296009); further: on the % scale 0 is the no-effect control and ±100 the full control effect; nearly all actives have a fitted effect of over 60% in size
# condition-set: MCC and control cell lines, CellTiter-Glo viability, 72 h; series mostly up to 46 µM
Records with an inconclusive call do not appear. Activity calls are given as the source filed them. The call rests on the fitted dose curve; in most records, active means well fitted inhibition curve with a large enough effect; inconclusive means small, poorly fitted or top-dose-only effect; inactive means flat fitted curve, though single readings scatter.
measure-name: outcome

Some entries whose results are on file:
N#Cc1cc(NC(=O)C(=O)O)c(Cl)c(NC(=O)C(=O)O)c1	inactive
Cc1nc([N+](=O)[O-])cn1-c1ccc([N+](=O)[O-])cc1	inactive
CCC(CN)=C(c1ccccc1)c1ccccc1	inactive
Cc1c(C)c2c(c(C)c1OC(=O)CCC(=O)OCCO)CC[C@@](C)(CCC[C@H](C)CCC[C@H](C)CCCC(C)C)O2	inactive

Form field outcome, entry Cc1oc(=O)oc1COC(=O)[C@@H]1N2C(=O)[C@@H](NC(=O)[C@H](N)c3ccccc3)[C@H]2SC1(C)C : inactive

====

# test: Drug repurposing screens with cells derived from glioblastoma tumor samples (AID 1345199); further: on the % scale 0 is the no-effect control and ±100 the full control effect; nearly all actives have a fitted effect of over 40% in size
# condition-set: GBM patient neurospheres viability, ATP luminescence, 48 h; at 45.9 µM (top of the series); tumour line D
Records with an inconclusive call do not appear.
measure-name: activity, negative = cell killing (%)
Lab book: enter the figure in %, no units written.

Some entries whose results are on file:
Cc1ncc(CO)c(CO)c1O	-6.71
Cc1ccc(/C=N/n2c(-c3ccccc3)csc2=S)cc1	-6.23
CCc1cc(S(=O)(=O)O)c2cc(C(C)C)cccc1-2	-10.6
CC(=O)OCC(=O)Nc1cc(C#N)cc(NC(=O)COC(C)=O)c1Cl	-1.03
CC(=O)O[C@@H]1C(=O)O[C@@H]2[C@H]1OC(=O)[C@@H]2OC(C)=O	5.03
Cc1cccc(C)c1NC(=O)c1cc(S(N)(=O)=O)c(Cl)cc1O	-8.64

Form field activity, negative = cell killing, entry Nc1ncnc2nc[nH]c12 : 4.13

Form field activity, negative = cell killing, entry C1N2CN3CN1CN(C2)C3 : -12.9

Form field activity, negative = cell killing, entry C[C@H]1NCc2cc(-c3ccc4c(=O)c(C(=O)O)cn(C5CC5)c4c3OC(F)F)ccc21 : 27.3

Form field activity, negative = cell killing, entry CN(CC1(C)CCCO1)S(=O)(=O)c1ccc(Cl)c(S(N)(=O)=O)c1 (configuration not stated) : -23.5

Form field activity, negative = cell killing, entry CC(=O)Nc1ccc(S(=O)(=O)Nc2cc(C)on2)cc1 : -21

Form field activity, negative = cell killing, entry O=C(O)c1ccccc1Nc1cc(Cl)ccc1C(=O)O : -11.1

====

# System: CP262
# test: qHTS profiling for inhibitors of Plasmodium falciparum proliferation (AID 504749); further: nearly all actives have a fitted effect of over 60% in size
# condition-set: P. falciparum in erythrocytes, SYBR Green DNA, 72 h; series mostly up to 28.7 µM
# Protocol: NIH National Institute of Allergy and Infectious Diseases [NIAID] NIH Chemical Genomics Center [NCGC] […] Because mature erythrocytes lack DNA, only Plasmodium-derived DNA is detected. NCGC Assay Protocol Summary: The SYBR Green viability assay was adapted from a method described previously (Plouffe et al., 2008). […] The following morning, fluorescence intensity at 485(14) nm excitation and 535(25) nm emission wavelengths was measured on an EnVision (Perkin Elmer) plate reader. […]
Results filed as inconclusive are left out. Active and inactive are the calls of the source. Calls come from the whole dose curve; as a rule, active = well fitted inhibition curve with a large enough effect; inconclusive = small, poorly fitted or top-dose-only effect; inactive = flat fitted curve, though single readings scatter.
Select the correct class. Options are True for active, False for inactive and nothing else.

# count of solved cases: 3
CCCCCCCCCCCCCCCC[n+]1ccccc1	True
Nc1ncnc2nc[nH]c12	False
CCCCCCCCCCCCCC[N+](C)(C)C	True

Which result was noted for this molecule in the test: CN1CCC(Nc2ncc3ncnc(Nc4ccc(F)c(Cl)c4)c3n2)CC1 False

Which result was noted for this molecule in the test: O=C(Nc1ccc(Cl)cc1)Nc1ccc(Cl)c(Cl)c1 True

====

# test: Primary qHTS for inhibitors of nuclear receptor binding SET domain protein 2 (NSD2) in an isogenic RCH-ACV NSD2 p.E1099K mutant (9B) (AID 1645876); further: nearly all actives have a fitted effect of over 70% in size
# condition-set: RCH-ACV NSD2 E1099K (9B) viability, CellTiter-Glo, 72 h; series mostly up to 44.9 µM
Records with an inconclusive call do not appear. Activity calls are given as the source filed them. Calls follow the shape of the dose curve; as a rule, active = well fitted inhibition curve with a large enough effect; inconclusive = small, poorly fitted or top-dose-only effect; inactive = flat fitted curve, though single readings scatter.
Select the correct class. Options are active, inactive and nothing else.

# count of solved cases: 4
CCCCC(CC)CNC(=O)CC(C)OC(=O)CCC(=O)O (stereo not given)	inactive
CC(=O)Nc1ccc(S(=O)(=O)Nc2cc(C)on2)cc1	inactive
O=C(O)c1ccccc1Nc1cc(Cl)ccc1C(=O)O	inactive
Nc1c(I)cc(I)c(C(=O)N(CCC(=O)O)c2ccccc2)c1I	inactive

Which result was noted for this molecule in the test: CCCCN(CCN(CCCC)C(=O)N1CCOCC1)C(=O)N1CCOCC1 inactive

Which result was noted for this molecule in the test: COc1cc2c(cc1OC)CN(C(=O)[C@H](C)N[C@@H](CCc1ccccc1)C(=O)O)[C@H](C(=O)O)C2 inactive

Which result was noted for this molecule in the test: C=CC[N+]1([C@H]2C[C@H]3[C@@H]4CC[C@H]5C[C@H](OC(C)=O)[C@@H](N6CCCCC6)C[C@]5(C)[C@H]4CC[C@]3(C)[C@H]2OC(=O)CC)CCCCC1 inactive

Which result was noted for this molecule in the test: CN1CC[C@H](c2c(O)cc(O)c3c(=O)cc(-c4ccccc4Cl)oc23)[C@H](O)C1 active

Which result was noted for this molecule in the test: NC(=O)COCCN1CCN(C(c2ccccc2)c2ccc(Cl)cc2)CC1 (stereo not given) inactive

Which result was noted for this molecule in the test: O=C1CC2(CCCC2)CC(=O)N1 inactive

====

# test: Primary qHTS for inhibitors of nuclear receptor binding SET domain protein 2 (NSD2) in an RCH-ACV wild type WT cells (2C) (AID 1645877); further: nearly all actives have a fitted effect of over 70% in size
# condition-set: RCH-ACV (leukaemia line) NSD2 WT (2C) viability, CellTiter-Glo, 72 h; series mostly up to 44.9 µM
Records with an inconclusive call do not appear. Activity calls are given as the source filed them. Calls come from the whole dose curve; as a rule, active = well fitted inhibition curve with a large enough effect; inconclusive = small, poorly fitted or top-dose-only effect; inactive = no such curve, though single readings can be large or run the other way.
Select the correct class. Options are 1 (yes) = active, 0 (no) = inactive and nothing else.

Which result was noted for this compound in the test: CCc1cccc2c(CCO)c[nH]c12 0 (no)

Which result was noted for this compound in the test: [O-][n+]1cccc(/C(Cl)=N/OC[C@@H](O)CN2CCCCC2)c1 0 (no)

Which result was noted for this compound in the test: CCCCCCCC(=O)[O-].CCCCCCCC(=O)[O-].[Zn+2] 0 (no)

Which result was noted for this compound in the test: C[C@H]1C[C@H]2[C@@H]3CCC4=CC(=O)C=C[C@]4(C)[C@H]3C(=O)C[C@]2(C)[C@@]1(O)C(=O)CO 0 (no)

Which result was noted for this compound in the test: O=C(OCCN1CCOCC1)c1cccnc1Nc1cccc(C(F)(F)F)c1 0 (no)

Which result was noted for this compound in the test: COc1cc(C(=O)NC2CCCNC2)cc(OC)c1OC (stereo not drawn) 0 (no)

Which result was noted for this compound in the test: CC(C)(C)c1nnc(NS(=O)(=O)c2ccccc2)s1 0 (no)

Which result was noted for this compound in the test: NC(=O)NC1N=C([O][Al])NC1=O (stereo not drawn) 0 (no)

Which result was noted for this compound in the test: Cc1ccc(/C=N/n2c(-c3ccccc3)csc2=S)cc1 0 (no)

Which result was noted for this compound in the test: OCc1c[nH]c2ccccc12 1 (yes)

Which result was noted for this compound in the test: CCN1CCN(C(=O)N[C@@H](C(=O)N[C@@H]2C(=O)N3[C@@H]2SC(C)(C)[C@H]3C(=O)O)c2ccccc2)C(=O)C1=O 0 (no)

Which result was noted for this compound in the test: O=C(OCC1(COC(=O)c2cccnc2)CCCC(COC(=O)c2cccnc2)(COC(=O)c2cccnc2)C1O)c1cccnc1 0 (no)

Which result was noted for this compound in the test: O=C(O)[C@@H](O)[C@H](O)[C@H](O)[C@@H](O)C(=O)O 0 (no)

Which result was noted for this compound in the test: CN1C(=O)CC(C)(c2ccccc2)C1=O (stereo not drawn) 0 (no)

Which result was noted for this compound in the test: CC(=O)Nc1c(I)c(NC(C)=O)c(I)c(C(=O)O)c1I 0 (no)

Which result was noted for this compound in the test: CO/N=C(\C(=O)O)c1csc(NC(=O)CCl)n1 0 (no)

====

# test: qHTS of pediatric cancer cell lines to identify multiple opportunities for drug repurposing: Primary screen for SJ-GBM2 cells (AID 1347091); further: potency means the concentration at half of the fitted maximal effect
# condition-set: SJ-GBM2 viability, CellTiter-Glo luminescence, 48 h; series mostly up to 46 µM
Results filed as inconclusive are left out. Calls of active or inactive are those of the source. The call rests on the fitted dose curve; in most records, active means well fitted cell-killing curve with a large enough effect; inconclusive means small, poorly fitted or top-dose-only effect; inactive means no such curve, though single readings can be large or run the other way.
measure-name: Potency

CNC[C@H](O)[C@@H](O)[C@H](O)[C@H](O)CO	inactive
C#Cc1ccc(-c2ccccc2F)cc1	inactive
Cc1ccccc1C(=O)N1CC/C(=N\OS(=O)(=O)O)c2ccc(Cl)cc21	inactive
O=C1Cc2cc(Cl)ccc2N1	inactive
C[C@@]12CCC[C@H]1[C@@H]1CC[C@H]3C[C@@H](O)CC[C@]3(C)[C@H]1CC2	inactive
CCCCCCOC(=O)NC(=N)c1ccc(NCc2nc3cc(C(=O)N(CCC(=O)OCC)c4ccccn4)ccc3n2C)cc1	21100 nM (active)
CN=C(N)NC(=O)Nc1c(C)cccc1C	inactive
CNC(=O)c1cnn(-c2nc(N)c3ncn([C@@H]4O[C@H](CO)[C@@H](O)[C@H]4O)c3n2)c1	inactive

--- query ---
Form field Potency, entry CCCCCOc1ccc(C2SC(=O)NC2=O)cc1OCC (stereo not drawn) : inactive
